molecular target: Acetylcholinesterase (Electrophorus electricus, UniProt O42275)
Sequence (O42275 whole entry): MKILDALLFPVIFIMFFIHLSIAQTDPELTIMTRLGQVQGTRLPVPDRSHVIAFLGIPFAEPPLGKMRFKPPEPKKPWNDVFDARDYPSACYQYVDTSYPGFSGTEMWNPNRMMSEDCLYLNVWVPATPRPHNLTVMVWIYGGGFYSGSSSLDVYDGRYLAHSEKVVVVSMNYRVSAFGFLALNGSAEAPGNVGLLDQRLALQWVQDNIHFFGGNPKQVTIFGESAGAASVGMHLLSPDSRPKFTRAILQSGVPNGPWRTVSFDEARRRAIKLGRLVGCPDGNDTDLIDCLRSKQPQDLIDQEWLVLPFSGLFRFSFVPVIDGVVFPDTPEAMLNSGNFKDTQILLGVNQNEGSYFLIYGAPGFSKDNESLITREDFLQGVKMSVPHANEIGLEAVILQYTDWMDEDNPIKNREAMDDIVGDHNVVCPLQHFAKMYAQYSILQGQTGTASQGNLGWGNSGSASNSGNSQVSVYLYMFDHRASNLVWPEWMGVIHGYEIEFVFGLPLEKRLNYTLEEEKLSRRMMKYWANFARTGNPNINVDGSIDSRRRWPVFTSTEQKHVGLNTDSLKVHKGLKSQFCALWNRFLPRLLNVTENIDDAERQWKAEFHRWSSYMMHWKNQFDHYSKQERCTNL
In this section we review reported IC50 values for a set of compounds.
Report the figure in µM without appending any unit label.

Solved cases below.
COc1ccc2cc(C3C4=C(CC(C)(C)CC4=O)Oc4nc5c(c(N)c43)CCCC5)c(Cl)nc2c1 (stereo not drawn) ... 14.8
COC(=O)C1=C(C)Oc2nc3c(c(N)c2C1c1cc2ccc(OC)cc2nc1Cl)CCCCC3 (stereo not drawn) ... 1.87

Continue with the compound presented below.
Per the reported Acetylcholinesterase (Electrophorus electricus, UniProt O42275) data, CCOC(=O)C1=C(C)Oc2nc3c(c(N)c2C1c1cc2ccc(OC)cc2nc1Cl)CCCCC3 (stereo not drawn) has IC50 of 9.8

----------
assay: in vitro; conditions: human, SH-SY5Y cells
Description: Neurotoxicity in human SH-SY5Y cells assessed as cell viability at 0.1 uM after 24 hrs by XTT assay relative to control
Collected viability at 24 h, 0.1 µM values appear next to each entry.
Field: numeric (%). Do not append units.

The measured viability at 24 h, 0.1 µM associated with CCOC(=O)C1=C(C)Oc2nc3c(c(N)c2C1c1cc2cc(OC)ccc2nc1Cl)CCCC3 (stereo not drawn) reads 128

Per the record, CCOC(=O)C1=C(C)Oc2nc3c(c(N)c2C1c1cc2ccc(OC)cc2nc1Cl)CCC3 (stereo not drawn) has viability at 24 h, 0.1 µM of 115

viability at 24 h, 0.1 µM in this record for COc1ccc2cc(C3C4=C(CC(C)(C)CC4=O)Oc4nc5c(c(N)c43)CCC5)c(Cl)nc2c1 (stereo not drawn) : 85

----------
experiment: in vitro; conditions: human, SH-SY5Y cells
Description: Neurotoxicity in human SH-SY5Y cells assessed as cell viability at 50 uM after 24 hrs by XTT assay relative to control
observable: viability at 24 h, 50 µM (%)
Use % as the unit, but write only the number.

Solved entries:
CCOC(=O)C1=C(C)Oc2nc3c(c(N)c2C1c1cc2cccc(OC)c2nc1Cl)CCCC3 (stereo not drawn) ... 99.5
CCOC(=O)C1=C(C)Oc2nc3c(c(N)c2C1c1cc2cc(C)ccc2nc1Cl)CCCC3 (stereo not drawn) ... 80.2

Turning to the following molecule.
COc1ccc2cc(C3C4=C(CC(C)(C)CC4=O)Oc4nc5c(c(N)c43)CCC5)c(Cl)nc2c1 (stereo not drawn) has a reported viability at 24 h, 50 µM of 94.9

----------
# viability at 24 h, 1 µM per entry
experiment: in vitro; settings: human, SH-SY5Y cells
Description: Neurotoxicity in human SH-SY5Y cells assessed as cell viability at 1 uM after 24 hrs by XTT assay relative to control
Report the figure along with its unit, number first.

COc1ccc2cc(C3C4=C(CC(C)(C)CC4=O)Oc4nc5c(c(N)c43)CCCC5)c(Cl)nc2c1 (stereo not drawn) ... 95.6%

molecule COc1ccc2cc(C3C4=C(CC(C)(C)CC4=O)Oc4nc5c(c(N)c43)CCCCC5)c(Cl)nc2c1 (stereo not drawn) , viability at 24 h, 1 µM observed: 97.3%

Value of viability at 24 h, 1 µM reported for the molecule COC(=O)C1=C(C)Oc2nc3c(c(N)c2C1c1cc2ccc(OC)cc2nc1Cl)CCC3 (stereo not drawn) is 94.2%

// field: viability at 24 h, 1 µM; key: COC(=O)C1=C(C)Oc2nc3c(c(N)c2C1c1cc2ccc(OC)cc2nc1Cl)CCCCC3 (stereo not drawn) ; value = 93.2%

----------
experiment: in vitro; conditions: human, SH-SY5Y cells
Description: Neurotoxicity in human SH-SY5Y cells assessed as cell viability at 25 uM after 24 hrs by XTT assay relative to control
observable: viability at 24 h, 25 µM (%)
Record the value in %, omitting the unit from your answer.

Examples with their reported viability at 24 h, 25 µM follow.
COc1ccc2cc(C3C4=C(CC(C)(C)CC4=O)Oc4nc5c(c(N)c43)CCCCC5)c(Cl)nc2c1 (stereo not given) ... 118
CCOC(=O)C1=C(C)Oc2nc3c(c(N)c2C1c1cc2cccc(OC)c2nc1Cl)CCCC3 (stereo not given) ... 100
COc1ccc2cc(C3C4=C(CC(C)(C)CC4=O)Oc4nc5c(c(N)c43)CCC5)c(Cl)nc2c1 (stereo not given) ... 124
CCOC(=O)C1=C(C)Oc2nc3c(c(N)c2C1c1cc2cc(OC)ccc2nc1Cl)CCCC3 (stereo not given) ... 125

As a next step, examine the molecule that follows.
// COC(=O)C1=C(C)Oc2nc3c(c(N)c2C1c1cc2ccc(OC)cc2nc1Cl)CCCCC3 (stereo not given) : viability at 24 h, 25 µM value = 98.6
